Target: CDK2–cyclin A (Homo sapiens)
Construct: purchased Thermo Fisher
Experiment: Lanthascreen kinase binding assay, CDK2
Conditions: Supplementary Table 2; read-out: Lanthascreen IC50 [nM] CDK2
Consider the following molecules and their measured IC50 readings.

molecule="Cn1cc(-c2cnn3c(NCc4nc5cc(Cl)c(Cl)cc5[nH]4)nc(N4CCOCC4)nc23)cn1 [DS74]" result_type=IC50 result="> 10000 nM"
molecule="CC(C)c1nn(-c2c(Cl)cccc2Cl)c2nc(Cc3ccc(OCCO)cc3)[nH]c(=O)c12 [compound 21195]" result_type=IC50 result="3 nM"
molecule="CC[C@H](CO)Nc1nc(NCc2nc3cc(Cl)c(Cl)cc3[nH]2)c2ncn(-c3cnn(C)c3)c2n1 [DS22]" result_type=IC50 result="> 10000 nM"
molecule="O=C(CSc1nc2ccccc2[nH]1)Nc1ccc(Cl)cn1 [dCeMM3]" result_type=IC50 result="> 10000 nM"
molecule="CC[C@H](CO)Nc1nc(NCc2ccc(-c3ccccn3)cc2)c2ncn(-c3cnn(C)c3)c2n1 [DS20]" result_type=IC50 result="> 10000 nM"

Challenge: Please report IC50 with CDK2–cyclin A (Homo sapiens) for item CC(C)n1cnc2c(NCc3ccc(-c4ccccn4)cc3)nc(N3CCCC[C@H]3CCO)nc21 [DS70] .
Response given: 31 nM

Challenge: Give reported IC50 for Cn1cc(-n2cnc3c(NCc4nc5cc(Cl)c(Cl)cc5[nH]4)nc(N4CCOCC4)nc32)cn1 [SR-4835] (CDK2–cyclin A (Homo sapiens))
Response given: > 10000 nM

Challenge: Give reported IC50 for CC(C)n1cnc2c(NCc3nc4cc(Cl)c(Cl)cc4[nH]3)nc(N3CCOCC3)nc21 [DS18] (CDK2–cyclin A (Homo sapiens))
Response given: 5730 nM

Challenge: Fill: IC50 (CDK2–cyclin A (Homo sapiens)) for this molecule Cc1ccc(C(=O)N2CSCC2C(=O)Nc2ncc(C)s2)o1 (stereo not drawn) [dCeMM4]
Response given: > 10000 nM

Data origin: paper PMC10746543
